- assay-text: Water solubility determination (HPLC)
- Assay type: physicochemical
- condition-parameters: thermodynamic from solid, ultra-pure water, room temperature
endpoint-label: solubility at 24 h (mg/mL)

molecule	endpoint-label	display-unit	data-value
C[C@H]1[C@H](C)CC[C@]2(C(=O)NCC(=O)N(C)CCO)CC[C@]3(C)C(=CC[C@@H]4[C@@]5(C)CC[C@H](O)C(C)(C)[C@@H]5CC[C@]43C)[C@H]12 [UAMMC9]	solubility at 24 h	mg/mL	0.0397

---

- target-of-assay: SENP1 (Homo sapiens)
- assay-text: In vitro deSUMOylation assay (SUMOylated His-JAK2 + recombinant GST-SENP1)
- Assay type: biochemical
- condition-parameters: recombinant SENP1, SUMOylated JAK2; read-out: SENP1 inhibition in vitro IC50

smiles-code	IC50 (µM)
C[C@H]1[C@H](C)CC[C@]2(C(=O)NCC(=O)N(C)CCO)CC[C@]3(C)C(=CC[C@@H]4[C@@]5(C)CC[C@H](O)C(C)(C)[C@@H]5CC[C@]43C)[C@H]12	0.196

---

- target-of-assay: SENP1 (Homo sapiens)
- Sequence (Q9P0U3 1-644): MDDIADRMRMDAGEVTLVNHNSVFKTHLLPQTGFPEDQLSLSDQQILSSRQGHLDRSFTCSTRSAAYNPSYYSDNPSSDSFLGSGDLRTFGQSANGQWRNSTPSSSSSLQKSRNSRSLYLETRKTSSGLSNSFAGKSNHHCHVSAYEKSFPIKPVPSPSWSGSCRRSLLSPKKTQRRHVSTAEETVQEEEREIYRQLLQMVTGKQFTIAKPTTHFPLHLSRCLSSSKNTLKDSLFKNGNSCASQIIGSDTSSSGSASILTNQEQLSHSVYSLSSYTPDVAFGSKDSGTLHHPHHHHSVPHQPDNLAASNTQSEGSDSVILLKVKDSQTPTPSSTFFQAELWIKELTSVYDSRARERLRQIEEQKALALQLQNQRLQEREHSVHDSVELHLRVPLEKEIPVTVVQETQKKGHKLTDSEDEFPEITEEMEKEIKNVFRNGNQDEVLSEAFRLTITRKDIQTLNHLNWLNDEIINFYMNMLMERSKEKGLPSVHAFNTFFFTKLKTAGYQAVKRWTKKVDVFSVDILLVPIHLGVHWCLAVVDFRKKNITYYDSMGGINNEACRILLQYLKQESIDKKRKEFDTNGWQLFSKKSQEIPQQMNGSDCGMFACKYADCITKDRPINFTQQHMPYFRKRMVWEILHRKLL
- assay-text: In vitro deSUMOylation assay (SUMOylated His-JAK2 + recombinant GST-SENP1)
- Format: biochemical
- condition-parameters: recombinant GST-SENP1, SUMOylated His-JAK2, 3 h; read-out: SENP1 inhibition in vitro IC50
pIC50: −log10 of the molar value.

compound	pIC50
CC1(C)CC[C@]2(C(=O)O)CC[C@]3(C)C(=CC[C@@H]4[C@@]5(C)CC[C@H](O[C@@H]6O[C@H](C(=O)O)[C@@H](O)[C@H](O[C@@H]7OC[C@@H](O)[C@H](O)[C@H]7O)[C@H]6O)C(C)(C)[C@@H]5CC[C@]43C)[C@@H]2C1 [Mc, Momordin Ιc]	4.70
C[C@H]1[C@H](C)CC[C@]2(C(=O)O)CC[C@]3(C)C(=CC[C@@H]4[C@@]5(C)CC[C@H](O)C(C)(C)[C@@H]5CC[C@]43C)[C@H]12 [UA, ursolic acid, reference compound]	8.19
